All figures here come from patent US20060073152A1.

Record form. Attribute: Kd. Fill in for each entry.
# measured-on: T1, rabbit serum albumin (rabbit, UniProt P49065 25-608)
# T1 construct: also called Rabbit SA; BuSA
# protocol: SPR (BIAcore), albumin on the chip
No end group written: not given here.
Don't forget the unit after the number, please.

# example entries with known answers
{"binder": "Ac-QGLIGDICLPRWGCLWGDSVK-NH2 (cysteine pairing not given here, free peptide) [SA08]", "Kd": "108 nM"}
{"binder": "GEWWEDICLPRWGCLWEEED-NH2 (not fully specified (bridges); printed as GEWWEDICLPRWGCLWEEED-NH2; cysteine pairing not given here, free peptide) [SA15]", "Kd": "65 nM"}

Please look at the following binder next.
Which Kd value is on record for Ac-RLIEDICLPRWGCLWEDD-NH2 (cysteine pairing not given here, free peptide) [SA21] ? 320 nM
